# Target of assay: full-length LSD1 (Homo sapiens)
Assay endpoint: IC50 (µM)
Give bare numbers, in µM.

Supply IC50 measured with full-length LSD1 (Homo sapiens) for Cc1ccc(-c2ncc(OC[C@@H]3CCNC3)cc2-c2ccc(C#N)cc2)cc1 [Compound C] .
0.03

###

# Test system: Pan CD3+ T cells
# Procedure details: Dose response of LSD1 inhibitors on T cell phenotypes
# Measurement context: Homo sapiens, T-cell, read-out: EC50 for inducing Tscm CD8+ T cells
Assay endpoint: EC50 (nM)
Answers are plain numbers, in nM.

Supply EC50 measured with Pan CD3+ T cells for c1ccc([C@@H]2C[C@H]2NC2CCNCC2)cc1 (relative stereo) .
1.08
